Reported pEC50 values follow for various compounds
biological target: TAS2R14 (Homo sapiens); test: cell-based
Sequence (Q9NYV8 whole entry): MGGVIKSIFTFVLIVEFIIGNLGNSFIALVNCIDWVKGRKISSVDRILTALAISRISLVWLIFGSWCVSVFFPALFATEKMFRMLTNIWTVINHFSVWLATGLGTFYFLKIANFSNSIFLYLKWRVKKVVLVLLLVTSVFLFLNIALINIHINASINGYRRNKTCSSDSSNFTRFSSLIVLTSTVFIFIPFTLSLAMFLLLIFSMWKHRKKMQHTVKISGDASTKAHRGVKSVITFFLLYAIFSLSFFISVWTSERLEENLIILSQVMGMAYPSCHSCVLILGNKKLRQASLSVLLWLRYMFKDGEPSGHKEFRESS
pEC50: −log10 of the molar value.

STRUCTURE NOTATION | pEC50
COc1ccc(Nc2ccccc2C(=O)O)cc1OCc1cccc(F)c1 | 5.85
O=C(O)c1ccccc1Nc1cccc(OCc2ccc(Cl)cc2)c1 | 5.96
COC(=O)c1cccc(C(=O)O)c1Nc1cccc(C(F)(F)F)c1 | 6.32
COc1cc(Nc2ccccc2-c2nnn[nH]2)cc(C(F)(F)F)c1 | 7.10
O=C(O)c1ccccc1Nc1cccc(OCc2cccc(F)c2)c1 | 6.38
O=C1COc2c(cc(C(F)(F)F)cc2Nc2ccccc2C(=O)O)N1 | 5.74
Cc1cn(-c2cc(Nc3ccccc3C(=O)O)cc(C(F)(F)F)c2)cn1 | 5.43
